Let's look at some compounds and their measured pIC50.
# SYSTEM: HDAC6 human recombinant (Homo sapiens, UniProt Q9UBN7)
# Sequence (Q9UBN7 whole entry): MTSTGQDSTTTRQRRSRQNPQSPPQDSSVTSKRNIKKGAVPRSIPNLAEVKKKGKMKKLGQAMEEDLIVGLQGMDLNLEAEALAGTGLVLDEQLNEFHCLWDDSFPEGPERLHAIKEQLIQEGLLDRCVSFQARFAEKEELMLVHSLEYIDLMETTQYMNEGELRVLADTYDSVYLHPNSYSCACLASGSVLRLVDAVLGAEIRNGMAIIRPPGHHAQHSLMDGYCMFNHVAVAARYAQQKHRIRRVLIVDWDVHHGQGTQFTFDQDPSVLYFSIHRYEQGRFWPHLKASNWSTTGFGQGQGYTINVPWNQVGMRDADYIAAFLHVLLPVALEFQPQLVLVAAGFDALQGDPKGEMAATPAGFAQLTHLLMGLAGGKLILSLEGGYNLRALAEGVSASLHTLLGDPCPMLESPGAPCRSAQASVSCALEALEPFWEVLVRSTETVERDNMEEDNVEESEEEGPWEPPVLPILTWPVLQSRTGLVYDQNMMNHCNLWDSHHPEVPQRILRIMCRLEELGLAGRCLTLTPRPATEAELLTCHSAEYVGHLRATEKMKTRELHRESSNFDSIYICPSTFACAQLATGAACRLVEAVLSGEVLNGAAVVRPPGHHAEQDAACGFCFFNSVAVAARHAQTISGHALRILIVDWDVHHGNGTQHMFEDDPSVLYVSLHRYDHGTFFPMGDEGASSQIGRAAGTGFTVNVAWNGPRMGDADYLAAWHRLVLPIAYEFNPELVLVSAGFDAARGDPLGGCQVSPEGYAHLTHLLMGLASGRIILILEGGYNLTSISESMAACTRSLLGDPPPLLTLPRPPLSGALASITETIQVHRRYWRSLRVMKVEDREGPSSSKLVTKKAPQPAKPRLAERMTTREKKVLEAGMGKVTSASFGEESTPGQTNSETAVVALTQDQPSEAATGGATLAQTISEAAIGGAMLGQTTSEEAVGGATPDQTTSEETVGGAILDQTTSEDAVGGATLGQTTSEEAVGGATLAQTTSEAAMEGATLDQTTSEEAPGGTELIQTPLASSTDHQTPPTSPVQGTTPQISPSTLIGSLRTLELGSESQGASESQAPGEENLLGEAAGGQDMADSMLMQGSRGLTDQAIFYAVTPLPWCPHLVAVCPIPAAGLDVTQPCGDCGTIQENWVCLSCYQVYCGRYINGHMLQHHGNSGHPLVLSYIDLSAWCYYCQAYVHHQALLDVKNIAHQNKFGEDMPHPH
# EXPERIMENTAL_DETAILS: HDAC enzyme activity inhibition (in vitro), fluorimetric HDAC6 assay
# CONDITION_INFO: samples at 0.1, 1, 10, 100 and 1000 nM, 37° C. 60 minutes, fluorescence Ex 390, Em 460
pIC50: −log10 of the molar value.
OBSERVED_PROPERTY: pIC50

1) COc1cccc(C(=O)Cn2ccc(-c3nnc(C(F)F)o3)cc2=O)c1    6.37
2) O=C(Cn1ccc(-c2nnc(C(F)(F)F)o2)cc1=O)c1ccc(Cl)cc1    5.64
3) O=c1cc(-c2nnc(C(F)F)o2)ccn1Cc1ccc([N+](=O)[O-])cc1    6.57
4) Cc1cc(C(=O)Cn2ccc(-c3nnc(C(F)F)o3)cc2=O)c(F)cc1Cl    6.22
5) O=C(OCCn1ccc(-c2nnc(C(F)(F)F)o2)cc1=O)c1ccccc1    6.05
6) O=C(Cn1ccc(-c2nnc(C(F)(F)F)o2)cc1=O)c1ccccc1    5.72
7) CCN(CC)CCn1ccc(-c2nnc(C(F)F)o2)cc1=O    5.65
8) O=C(Cn1ccc(-c2nnc(C(F)(F)F)o2)cc1=O)OCc1ccccc1    6.02
9) O=C(Cn1ccc(-c2nnc(C(F)F)o2)cc1=O)c1ccc2c(c1)OCCO2    6.42
10) O=c1cc(-c2nnc(C(F)F)o2)ccn1Cc1ccccc1F    6.29
11) O=c1cc(-c2nnc(C(F)F)o2)ccn1C/C=C/c1ccccc1    7.40
12) O=C(Cn1ccc(-c2nnc(C(F)(F)F)o2)cc1=O)c1cccs1    6.03
13) COc1cc(CCn2ccc(-c3nnc(C(F)F)o3)cc2=O)cc(OC)c1    6.60
14) O=C(Cn1ccc(-c2nnc(C(F)F)o2)cc1=O)OCc1ccccc1    7.13
15) O=c1cc(-c2nnc(C(F)F)o2)ccn1CCC1OCCCO1    6.61
16) O=C(Cn1ccc(-c2nnc(C(F)F)o2)cc1=O)c1ccc2ccccc2c1    6.44
17) O=C(Cn1ccc(-c2nnc(C(F)F)o2)cc1=O)c1ccc(Cl)cc1    6.45
18) O=C(Cn1ccc(-c2nnc(C(F)F)o2)cc1=O)c1ccc(Cl)s1    6.90
19) O=c1cc(-c2nnc(C(F)F)o2)ccn1CCn1cccn1    6.34
